tested on: TTR; assay: TTR editing in primary cyno hepatocytes electroporated with Spy Cas9 protein and sgRNAs (Tables 14, 15); format: cell-based, cynomolgus monkey; conditions: Table 15; primary cyno hepatocytes electroporated with Spy Cas9 protein (RNP) and cyno specific sgRNAs
Strand notation (5' to 3'): a small letter for the sugar, then the base; units joined by * are phosphorothioate-linked, units joined directly phosphodiester-linked; [ ] holds rarer units or linkages, { } end groups; capitals alone tell only the bases. m = 2'-O-methyl; r = 2'-OH (RNA)
Mark YES only when Avg % Edit stays strictly below 80%. Values equal to the cut-off are NO.

molecule	cat
G000508: TTR Cyno specific sgRNA modified sequence, SEQ ID No. 120; guide sequence of CR005368 (nucleic acid) guide: mC*mC*mU*rCrCrUrCrUrGrCrCrUrCrGrCrUrGrGrArCrGrUrUrUrUrArGrAmGmCmUmAmGmAmAmAmUmAmGmCrArArGrUrUrArArArArUrArArGrGrCrUrArGrUrCrCrGrUrUrArUrCrAmAmCmUmUmGmAmAmAmAmAmGmUmGmGmCmAmCmCmGmAmGmUmCmGmGmUmGmCmU*mU*mU*mU	YES
G000505: TTR Cyno specific sgRNA modified sequence, SEQ ID No. 117; guide sequence of CR005365 (nucleic acid) guide: mC*mA*mU*rUrGrArCrArGrCrArGrGrArCrUrGrCrCrUrGrUrUrUrUrArGrAmGmCmUmAmGmAmAmAmUmAmGmCrArArGrUrUrArArArArUrArArGrGrCrUrArGrUrCrCrGrUrUrArUrCrAmAmCmUmUmGmAmAmAmAmAmGmUmGmGmCmAmCmCmGmAmGmUmCmGmGmUmGmCmU*mU*mU*mU	NO
G000504: TTR Cyno specific sgRNA modified sequence, SEQ ID No. 116; guide sequence of CR005364 (nucleic acid) guide: mA*mA*mA*rGrGrCrUrGrCrUrGrArUrGrArGrArCrCrUrGrUrUrUrUrArGrAmGmCmUmAmGmAmAmAmUmAmGmCrArArGrUrUrArArArArUrArArGrGrCrUrArGrUrCrCrGrUrUrArUrCrAmAmCmUmUmGmAmAmAmAmAmGmUmGmGmCmAmCmCmGmAmGmUmCmGmGmUmGmCmU*mU*mU*mU	YES
G000510: TTR Cyno specific sgRNA modified sequence, SEQ ID No. 122; guide sequence of CR005370 (nucleic acid) guide: mA*mC*mU*rUrGrUrCrUrUrCrUrCrUrArUrArCrCrCrArGrUrUrUrUrArGrAmGmCmUmAmGmAmAmAmUmAmGmCrArArGrUrUrArArArArUrArArGrGrCrUrArGrUrCrCrGrUrUrArUrCrAmAmCmUmUmGmAmAmAmAmAmGmUmGmGmCmAmCmCmGmAmGmUmCmGmGmUmGmCmU*mU*mU*mU	NO
G000506: TTR Cyno specific sgRNA modified sequence, SEQ ID No. 118; guide sequence of CR005366 (nucleic acid) guide: mA*mU*mA*rCrCrArGrUrCrCrArGrCrGrArGrGrCrArGrGrUrUrUrUrArGrAmGmCmUmAmGmAmAmAmUmAmGmCrArArGrUrUrArArArArUrArArGrGrCrUrArGrUrCrCrGrUrUrArUrCrAmAmCmUmUmGmAmAmAmAmAmGmUmGmGmCmAmCmCmGmAmGmUmCmGmGmUmGmCmU*mU*mU*mU	NO
G000507: TTR Cyno specific sgRNA modified sequence, SEQ ID No. 119; guide sequence of CR005367 (nucleic acid) guide: mC*mC*mA*rGrUrCrCrArGrCrGrArGrGrCrArGrArGrGrGrUrUrUrUrArGrAmGmCmUmAmGmAmAmAmUmAmGmCrArArGrUrUrArArArArUrArArGrGrCrUrArGrUrCrCrGrUrUrArUrCrAmAmCmUmUmGmAmAmAmAmAmGmUmGmGmCmAmCmCmGmAmGmUmCmGmGmUmGmCmU*mU*mU*mU	YES
G000509: TTR Cyno specific sgRNA modified sequence, SEQ ID No. 121; guide sequence of CR005369 (nucleic acid) guide: mA*mA*mA*rGrUrUrCrUrArGrArUrGrCrCrGrUrCrCrGrGrUrUrUrUrArGrAmGmCmUmAmGmAmAmAmUmAmGmCrArArGrUrUrArArArArUrArArGrGrCrUrArGrUrCrCrGrUrUrArUrCrAmAmCmUmUmGmAmAmAmAmAmGmUmGmGmCmAmCmCmGmAmGmUmCmGmGmUmGmCmU*mU*mU*mU	NO
G000511: TTR Cyno specific sgRNA modified sequence, SEQ ID No. 123; guide sequence of CR005371 (nucleic acid) guide: mA*mA*mG*rUrGrArCrUrUrCrCrArGrUrArArGrArUrUrGrUrUrUrUrArGrAmGmCmUmAmGmAmAmAmUmAmGmCrArArGrUrUrArArArArUrArArGrGrCrUrArGrUrCrCrGrUrUrArUrCrAmAmCmUmUmGmAmAmAmAmAmGmUmGmGmCmAmCmCmGmAmGmUmCmGmGmUmGmCmU*mU*mU*mU	YES
G000502: TTR Cyno specific sgRNA modified sequence, SEQ ID No. 114; guide sequence of CR000689; cross homologous between mouse and cyno (nucleic acid) guide: mA*mC*mA*rCrArArArUrArCrCrArGrUrCrCrArGrCrGrGrUrUrUrUrArGrAmGmCmUmAmGmAmAmAmUmAmGmCrArArGrUrUrArArArArUrArArGrGrCrUrArGrUrCrCrGrUrUrArUrCrAmAmCmUmUmGmAmAmAmAmAmGmUmGmGmCmAmCmCmGmAmGmUmCmGmGmUmGmCmU*mU*mU*mU	NO
G000503: TTR Cyno specific sgRNA modified sequence, SEQ ID No. 115; guide sequence of CR005372 (nucleic acid) guide: mA*mA*mA*rArGrGrCrUrGrCrUrGrArUrGrArGrArCrCrGrUrUrUrUrArGrAmGmCmUmAmGmAmAmAmUmAmGmCrArArGrUrUrArArArArUrArArGrGrCrUrArGrUrCrCrGrUrUrArUrCrAmAmCmUmUmGmAmAmAmAmAmGmUmGmGmCmAmCmCmGmAmGmUmCmGmGmUmGmCmU*mU*mU*mU	YES

The measurements presented in this section are drawn from patent US11795460B2.
